target: Recombinant human P450 27A1 (Homo sapiens, UniProt Q02318); construct: made in house; host or cells: E. coli; experiment: P450 27A1 enzyme incubation: rate of 27-diol formation (GLC-MS); format: biochemical; details: 2.5-5.0 min; 25 nmol substrate, 37° C.
Sequence (Q02318 34-531): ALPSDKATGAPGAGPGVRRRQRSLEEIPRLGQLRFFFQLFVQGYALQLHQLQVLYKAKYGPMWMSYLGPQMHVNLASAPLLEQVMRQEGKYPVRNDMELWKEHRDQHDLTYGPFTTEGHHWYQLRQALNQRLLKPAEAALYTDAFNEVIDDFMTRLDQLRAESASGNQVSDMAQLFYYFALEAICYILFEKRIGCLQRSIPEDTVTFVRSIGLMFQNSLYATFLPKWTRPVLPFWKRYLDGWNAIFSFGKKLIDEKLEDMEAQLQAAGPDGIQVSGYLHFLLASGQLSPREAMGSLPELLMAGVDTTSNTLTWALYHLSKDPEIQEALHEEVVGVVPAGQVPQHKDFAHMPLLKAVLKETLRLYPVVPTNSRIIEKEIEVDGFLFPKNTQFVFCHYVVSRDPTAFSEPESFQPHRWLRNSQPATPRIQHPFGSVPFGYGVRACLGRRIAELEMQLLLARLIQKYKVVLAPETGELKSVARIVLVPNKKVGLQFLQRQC
Listing of entries alongside the reported Synthesis rate of the 27-diol metabolite.
attributeMeasured: Synthesis rate of the 27-diol metabolite (ng/min)

{"molecule": "CC(C)CCC[C@@H](C)[C@H]1CC[C@H]2[C@@H]3CC=C4C[C@@H](O)CC[C@]4(C)[C@H]3CC[C@]12C [Cholesterol]", "attributeMeasured": "Synthesis rate of the 27-diol metabolite", "endpointResult": 75}
{"molecule": "CC(C)CCC[C@@H](C)[C@H]1CC[C@H]2C3=CC=C4C[C@@H](O)CC[C@]4(C)[C@H]3CC[C@]12C [7-Dehydrocholesterol]", "attributeMeasured": "Synthesis rate of the 27-diol metabolite", "endpointResult": 54}
{"molecule": "CC(C)=CCC[C@@H](C)[C@H]1CC[C@H]2[C@@H]3CC=C4C[C@@H](O)CC[C@]4(C)[C@H]3CC[C@]12C [Desmosterol]", "attributeMeasured": "Synthesis rate of the 27-diol metabolite", "endpointResult": 8}
{"molecule": "CC(C)=CCC[C@@H](C)[C@H]1CC[C@H]2C3=C(CC[C@]12C)[C@@]1(C)CC[C@H](O)C[C@@H]1CC3 [Zymosterol]", "attributeMeasured": "Synthesis rate of the 27-diol metabolite", "endpointResult": 14}
